Target: Human immunodeficiency virus type 1 protease (Human immunodeficiency virus 1, UniProt Q72874, A71V/G73S/I84V/L10I/L63P/L90M)
Sequence (Q72874 entry or part of it A71V/G73S/I84V/L10I/L63P/L90M): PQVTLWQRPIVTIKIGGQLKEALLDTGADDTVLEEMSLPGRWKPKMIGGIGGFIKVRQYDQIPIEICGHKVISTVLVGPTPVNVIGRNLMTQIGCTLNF
Test: Inhibition of HIV1 protease L10I, L63P, A71V, G73S, I84V, L90M mutant by FRET assay
pKi: −log10 of the molar value.
Measurement kind: pKi

molecule_smiles=CCCCCN(C[C@@H](O)[C@H](Cc1ccccc1)NC(=O)O[C@H](C)CC(=O)OC)S(=O)(=O)c1ccc2ncsc2c1 measurement_kind=pKi numeric_readout=7.34

###

System: Human immunodeficiency virus 1
Test: Antiviral activity against wild type HIV1 clade A isolated form HIV1 patient infected in HEK293 cells assessed as reduction in viral replication incubated for 48 hrs by luciferase reporter based assay
Type: functional, organism-based
Details: Human immunodeficiency virus 1, clade A, HEK293, 48 h
pEC50: −log10 of the molar value.
# pEC50 annotations
Measurement kind: pEC50

molecule_smiles=CC[C@H](C)CN(C[C@@H](O)[C@H](Cc1ccccc1)NC(=O)OC[C@@H](C)C(=O)OC)S(=O)(=O)c1ccc(OC)cc1 measurement_kind=pEC50 numeric_readout=7.60
molecule_smiles=CC[C@H](C)CN(C[C@@H](O)[C@H](Cc1ccccc1)NC(=O)OCCNC(=O)C(Cl)Cl)S(=O)(=O)c1ccc(OC)cc1 measurement_kind=pEC50 numeric_readout=7.29
molecule_smiles=CCCCCN(C[C@@H](O)[C@H](Cc1ccccc1)NC(=O)OCCNC(=O)C(Cl)Cl)S(=O)(=O)c1ccc2ncsc2c1 measurement_kind=pEC50 numeric_readout=7.10
molecule_smiles=CCCCCN(C[C@@H](O)[C@H](Cc1ccccc1)NC(=O)OCCN1CCNC1=O)S(=O)(=O)c1ccc2ncsc2c1 measurement_kind=pEC50 numeric_readout=7.00

Where these numbers come from: ChEMBL document CHEMBL2163218
